- System: Candida albicans A-26
- Measurement description: Agar plate disc diffusion test, MIC per disc
- Format: cell-based
- Run parameters: 0.1M sodium borate, pH 7.5, 24 hours, 30° C.
- Description: Tables 10 and 11 give the results of the testing in vitro of the compounds of Examples 3 and 4 by agar-plate disc-diffusion methods. In Table 10 activity is measured by the size (diameter in mm) of the observed zone of inhibition of the microorganism produced by the test compound. In Table 11, activity is measured by the minimal inhibitory concentration (MIC) of the substance (μg/disc) required to inhibit growth of the test organism. […]
Starred links: 1 amine or outer side, 2 acyl side, 3 side chain; linkers in the order of their positions; H or OH if unused. Positions of bridges follow the written chain, without caps; N, C: chain ends. Non-standard residues stand in square brackets, D forms with d. Residues, ends and D or L forms follow the SMILES beside them. *: point of attachment. Orn(4R-OH,5R-OH) = O=C([C@H](C[C@@H](O)[C@@H](O)N[*:3])N[*:1])[*:2]; hTyr(3S-OH,4S-OH) = N[C@H](C(=O)O)[C@H](O)[C@@H](O)c1ccc(O)cc1; Pro(3S-OH,4S-Me) = C[C@H]1CN[C@H](C(=O)O)[C@H]1O; X11 = CCCCCCCCOc1ccc(OCC(=O)*)cc1; Hyp = O=C(O)[C@@H]1C[C@@H](O)CN1
Readout label: MIC

q: Please look up its MIC: CCCCCCCCOc1ccc(OCC(=O)N[C@H]2C[C@@H](O)[C@@H](O)NC(=O)[C@@H]3[C@@H](O)[C@@H](C)CN3C(=O)[C@H]([C@@H](C)O)NC(=O)[C@H]([C@H](O)[C@@H](O)c3ccc(O)cc3)NC(=O)[C@@H]3C[C@@H](O)CN3C(=O)[C@H]([C@@H](C)O)NC2=O)cc1 [drawing 145] (X11-[Orn(4R-OH,5R-OH)]T[Hyp][hTyr(3S-OH,4S-OH)]T[Pro(3S-OH,4S-Me)]; lactam 1-C)
a: 0.312 μg/disc

###

- Tested on: Trychophyton mentagrophyes #6
- Measurement description: Agar plate disc diffusion test, MIC per disc
- Assay type: cell-based, Trichophyton mentagrophytes
- Run parameters: 0.1M sodium borate, pH 7.5, 24 hours, 30° C., * measurable zones with regrowth of organism around disc
Starred links: 1 amine or outer side, 2 acyl side, 3 side chain; linkers in the order of their positions; H or OH if unused. Positions of bridges follow the written chain, without caps; N, C: chain ends. Non-standard residues stand in square brackets, D forms with d. Residues, ends and D or L forms follow the SMILES beside them. *: point of attachment. Orn(4R-OH,5R-OH) = O=C([C@H](C[C@@H](O)[C@@H](O)N[*:3])N[*:1])[*:2]; hTyr(3S-OH,4S-OH) = N[C@H](C(=O)O)[C@H](O)[C@@H](O)c1ccc(O)cc1; Pro(3S-OH,4S-Me) = C[C@H]1CN[C@H](C(=O)O)[C@H]1O; Hyp = O=C(O)[C@@H]1C[C@@H](O)CN1; X9 = CCCCCCCCCCOc1cccc(C(=O)*)c1; X26 = CCCCCOc1ccc(CCC(=O)*)cc1
Readout label: MIC

q: Please look up its MIC: CCCCCCCCCCOc1cccc(C(=O)N[C@H]2C[C@@H](O)[C@@H](O)NC(=O)[C@@H]3[C@@H](O)[C@@H](C)CN3C(=O)[C@H]([C@@H](C)O)NC(=O)[C@H]([C@H](O)[C@@H](O)c3ccc(O)cc3)NC(=O)[C@@H]3C[C@@H](O)CN3C(=O)[C@H]([C@@H](C)O)NC2=O)c1 [drawing 128] (X9-[Orn(4R-OH,5R-OH)]T[Hyp][hTyr(3S-OH,4S-OH)]T[Pro(3S-OH,4S-Me)]; lactam 1-C)
a: > 40 μg/disc

Now let's try a different one.
q: Please look up its MIC: CCCCCOc1ccc(CCC(=O)N[C@H]2C[C@@H](O)[C@@H](O)NC(=O)[C@@H]3[C@@H](O)[C@@H](C)CN3C(=O)[C@H]([C@@H](C)O)NC(=O)[C@H]([C@H](O)[C@@H](O)c3ccc(O)cc3)NC(=O)[C@@H]3C[C@@H](O)CN3C(=O)[C@H]([C@@H](C)O)NC2=O)cc1 (X26-[Orn(4R-OH,5R-OH)]T[Hyp][hTyr(3S-OH,4S-OH)]T[Pro(3S-OH,4S-Me)]; lactam 1-C)
a: 0.156 μg/disc

Cited source for all entries: patent US4293489A
